method_summary: solubility in water and in oil
Assay type: physicochemical
condition_info: oil, organic solvent or mixture; read-out: solubility in oil
quantity_measured: solubility (µg/mL)
Quick reminder: number only, in µg/mL, skip the unit.

Prompt: Item O=c1cc(-c2ccccc2)oc2cc(O)cc(O)c12 [chrysin, 5,7-Dihydroxyflavone, reference compound] has what recorded solubility?
Response: 50

Prompt: Entry under review: c1ccc2c(Cc3c[nH]c4ccccc34)c[nH]c2c1 [DIM, 3,3'-diindolylmethane] . Reported solubility?
Response: 100

----------
Please provide measured solubility for the entries that follow.
method_summary: solubility in water and in oil
Format: physicochemical
condition_info: water; read-out: solubility in water
Report the figure in µg/mL without appending any unit label.

Prompt: Consider the compound shown here: O=c1cc(-c2ccccc2)oc2cc(O)cc(O)c12 [chrysin, 5,7-Dihydroxyflavone, reference compound] What is its recorded solubility?
Response: 0.7

Prompt: Find the recorded solubility belonging to "c1ccc2c(Cc3c[nH]c4ccccc34)c[nH]c2c1" and report it.
Response: 2.5
